# assayedTarget: Biotinylated CD33 protein (UniProt P20138)
# Sequence (P20138 18-259 limits assumed): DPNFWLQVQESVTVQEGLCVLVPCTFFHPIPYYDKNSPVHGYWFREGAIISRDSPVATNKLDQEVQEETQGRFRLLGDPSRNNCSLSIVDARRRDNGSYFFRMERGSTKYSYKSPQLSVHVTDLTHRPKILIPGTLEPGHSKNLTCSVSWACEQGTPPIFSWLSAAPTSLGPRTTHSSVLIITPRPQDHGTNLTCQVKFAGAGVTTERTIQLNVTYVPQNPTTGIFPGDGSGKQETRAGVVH
# testName: Octet competition on biotinylated CD33; competitor 348
Decide using Octet signal alone. Strictly below 0.2: Criterion met. Equal to or above 0.2: Criterion not met.

Recorded results for 3 binders are shown here.
[
  {
    "binder": "sdCD33_7 (VHH, sdAb from a naive llama phage library; also called 420; sdAb420) VHH: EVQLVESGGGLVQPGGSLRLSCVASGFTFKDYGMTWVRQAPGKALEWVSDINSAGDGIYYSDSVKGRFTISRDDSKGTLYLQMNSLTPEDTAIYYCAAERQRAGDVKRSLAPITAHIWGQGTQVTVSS",
    "assignedClass": "Criterion met"
  },
  {
    "binder": "sdCD33_5 (VHH, sdAb from a naive llama phage library; also called 413; sdAb413) VHH: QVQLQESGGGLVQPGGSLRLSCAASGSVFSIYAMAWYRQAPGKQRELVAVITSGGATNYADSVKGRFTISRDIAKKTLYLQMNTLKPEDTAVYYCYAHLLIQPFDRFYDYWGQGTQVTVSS",
    "assignedClass": "Criterion met"
  },
  {
    "binder": "sdCD33_10 (VHH) VHH: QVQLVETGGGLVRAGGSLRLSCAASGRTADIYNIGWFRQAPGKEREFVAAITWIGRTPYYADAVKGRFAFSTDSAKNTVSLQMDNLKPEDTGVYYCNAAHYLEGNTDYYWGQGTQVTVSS",
    "assignedClass": "Criterion not met"
  }
]

Is Octet signal strictly under 0.2 for the entry sdCD33_4 (VHH) VHH: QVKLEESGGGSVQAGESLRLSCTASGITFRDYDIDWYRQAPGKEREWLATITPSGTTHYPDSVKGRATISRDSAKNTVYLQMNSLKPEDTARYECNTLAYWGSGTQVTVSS ?
Criterion met

Is Octet signal strictly under 0.2 for the entry sdCD33_8 (VHH, sdAb from a naive llama phage library; also called 424; sdAb424) VHH: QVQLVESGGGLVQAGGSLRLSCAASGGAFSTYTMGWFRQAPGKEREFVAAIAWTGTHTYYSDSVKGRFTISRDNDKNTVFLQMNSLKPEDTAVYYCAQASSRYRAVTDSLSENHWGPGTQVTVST ?
Criterion met

Is Octet signal strictly under 0.2 for the entry sdCD33_6 (VHH, sdAb from a naive llama phage library; also called 416; sdAb416) VHH: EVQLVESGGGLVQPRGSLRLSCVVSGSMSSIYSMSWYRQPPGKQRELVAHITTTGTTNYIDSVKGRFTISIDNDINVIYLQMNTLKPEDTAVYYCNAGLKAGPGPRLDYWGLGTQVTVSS ?
Criterion not met

Is Octet signal strictly under 0.2 for the entry sdCD33_11 (VHH, sdAb from a naive llama phage library; also called 430; sdAb430) VHH: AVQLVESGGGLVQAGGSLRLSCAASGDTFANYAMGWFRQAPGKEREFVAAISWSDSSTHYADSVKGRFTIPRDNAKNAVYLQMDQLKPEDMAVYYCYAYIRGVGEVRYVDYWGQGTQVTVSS ?
Criterion met

Is Octet signal strictly under 0.2 for the entry sdCD33_9 (VHH, sdAb from a naive llama phage library; also called 426; sdAb426) VHH: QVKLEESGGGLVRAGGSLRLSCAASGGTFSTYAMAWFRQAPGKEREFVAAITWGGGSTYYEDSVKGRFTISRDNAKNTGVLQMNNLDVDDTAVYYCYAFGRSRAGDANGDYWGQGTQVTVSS ?
Criterion met

Is Octet signal strictly under 0.2 for the entry sdCD33_3 (VHH) VHH: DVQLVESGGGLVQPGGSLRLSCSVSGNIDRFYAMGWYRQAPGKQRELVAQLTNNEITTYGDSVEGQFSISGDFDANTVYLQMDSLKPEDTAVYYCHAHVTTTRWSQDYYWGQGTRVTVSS ?
Criterion met
